# System: HBV (extracellular HBsAg) in PHH
# experimental protocol: Cryopreserved primary human hepatocytes (PHH) HBV infection assay, extracellular HBsAg (CLIA)
# Type: cell-based
# particulars: Hepatitis B virus, Hepatocyte, 216 h, read-out: HBsAg IC50
# Experimental: This assay is used to confirm the anti-HBV effect of the compounds in HBV PHH infection assay. […] At 9 days post-compound treatment, extracellular HBsAg level were measured with Chemiluminescence Immuno Assay (CLIA) kit (Autobio, HBsAg Quantitative CLIA). Extracellular HBV DNA was extracted by MagNA Pure 96 system (Roche) and then determined by quantitative PCR with the following primers and probe: […]
// NB: equality with 7 µM counts as FALSE; only IC50 strictly below is TRUE

Report whether reported IC50 is lower than 7 µM (strictly) for COc1cc(Cl)ccc1N1CCc2c(oc3c(Cl)cccc3c2=O)C1=O [Example 17]
FALSE

Report whether reported IC50 is lower than 7 µM (strictly) for O=C1c2oc3c(Cl)cccc3c(=O)c2CCN1c1ccc(F)cc1 [Example 14]
FALSE

Report whether reported IC50 is lower than 7 µM (strictly) for O=C1c2oc3c(Cl)cccc3c(=O)c2CCN1c1ccc(Cl)cc1F [Example 29]
TRUE

Report whether reported IC50 is lower than 7 µM (strictly) for O=C1c2oc3c(Cl)cccc3c(=O)c2CCN1c1ccc(Cl)nc1 [Example 16]
TRUE

Report whether reported IC50 is lower than 7 µM (strictly) for COc1ccc(N2CCc3c(oc4c(Cl)cccc4c3=O)C2)cc1 [Example 40]
FALSE

Report whether reported IC50 is lower than 7 µM (strictly) for COc1ccc(N2CCc3c(oc4c(Cl)cccc4c3=O)C2=O)cc1 [Example 9]
TRUE

Report whether reported IC50 is lower than 7 µM (strictly) for O=C(O)C1CC(Oc2ccccc2N2CCc3c(oc4c(Cl)cccc4c3=O)C2=O)C1 (stereo not drawn) [Example 25]
FALSE

Report whether reported IC50 is lower than 7 µM (strictly) for O=C1c2oc3c(Cl)cccc3c(=O)c2CCN1c1ccc(F)c(C(F)(F)F)c1 [Example 18]
TRUE

Report whether reported IC50 is lower than 7 µM (strictly) for O=C1c2oc3c(Cl)cccc3c(=O)c2CCN1c1ccc(C(F)(F)F)cc1 [Example 20]
FALSE
